Entry source: patent US20060069132A1

system: velvetleaf; assay: Test A pre-/postemergence herbicide test; assay type: in vivo, Abutilon theophrasti; settings: Postemergence, 500 g ai/ha; 0 to 100 scale, 0 no effect, 100 complete control
This listing pairs compounds with measured Velvetleaf plant response rating.

Sample answers from the record:
QUERY: Read off the recorded Velvetleaf plant response rating for C=CCNC(=O)c1cccc(NC(=O)c2sc(C(C)(C)C)nc2CC)c1
RESULT: 20

QUERY: Read off the recorded Velvetleaf plant response rating for CC(=NO)c1cccc(NC(=O)c2sc(C(C)(C)C)nc2C)c1
RESULT: 0

QUERY: Read off the recorded Velvetleaf plant response rating for CCc1nc(C(C)(C)C)sc1C(=O)Nc1cccc(C(=O)NCC(C)C)c1
RESULT: 15

QUERY: Read off the recorded Velvetleaf plant response rating for CCOC(=O)c1cc(NC(=O)c2cc(C(C)(C)C)nn2CC)ccc1OC
RESULT: 70

Next compound, Velvetleaf plant response rating to be filled in.
QUERY: Read off the recorded Velvetleaf plant response rating for C=CCN(C)C(=O)c1cccc(NC(=O)c2cc(C(C)(C)C)nn2CC)c1
RESULT: 60

====

tested on: pigweed; experiment: Test B pre-/postemergence herbicide test; type: in vivo, Amaranthus retroflexus; conditions: Postemergence, 500 g ai/ha; scale 0 (no effect) to 100 (complete control)
ENDPOINT: Pigweed plant response rating
Give the value as a plain number.

QUERY: Read off the recorded Pigweed plant response rating for CCNC(=O)c1ccnc(NC(=O)c2nn(C(C)(C)C)nc2C)c1
RESULT: 60

QUERY: Read off the recorded Pigweed plant response rating for CCN(CC)C(=O)c1cncc(NC(=O)c2nn(C(C)(C)C)nc2C)c1
RESULT: 30

Next compound, Pigweed plant response rating to be filled in.
QUERY: Read off the recorded Pigweed plant response rating for CCN(CC)C(=O)c1ccnc(NC(=O)c2nn(C(C)(C)C)nc2C)c1
RESULT: 70

====

test system: lambsquarters; test: Test B pre-/postemergence herbicide test; assay type: in vivo, Chenopodium album; conditions: Postemergence, 500 g ai/ha; visual rating after 13 to 15 days, scale 0 (no effect) to 100 (complete control)
ENDPOINT: Plant response rating, Lambsquarters
Give the value as a plain number.

QUERY: Read off the recorded Plant response rating, Lambsquarters for CCON=C(C)c1cccc(NC(=O)c2cc(C(C)(C)C)nn2C)c1
RESULT: 80

QUERY: Read off the recorded Plant response rating, Lambsquarters for C#CCn1nc(C(C)(C)C)cc1C(=O)Nc1cccc(C(=O)NCC)c1
RESULT: 90

QUERY: Read off the recorded Plant response rating, Lambsquarters for CCN(C)C(=O)c1cccc(NC(=O)c2cc(C(C)(C)C)nn2CC)c1
RESULT: 90

---
QUERY: Read off the recorded Plant response rating, Lambsquarters for C=Cn1nc(C(C)(C)C)cc1C(=O)Nc1cccc(C(C)=NO)c1
RESULT: 90

====

system: corn; experiment: Test C pre-/postemergence herbicide test; type: in vivo, Zea mays; conditions: 125 g ai/ha; scale 0 (no effect) to 100 (complete control); visual, 12 to 14 days; preemergence
This listing pairs molecules with measured Plant response rating, Corn.
Give the value as a plain number.

Sample answers from the record:
QUERY: Read off the recorded Plant response rating, Corn for CCc1nn(C(C)(C)C)cc1C(=O)Nc1cc(C(=O)N(C)C)ccn1 [Compound 293]
RESULT: 10

QUERY: Read off the recorded Plant response rating, Corn for CCN(C)C(=O)c1cccc(NC(=O)c2cc(C(C)(C)C)nn2CC)c1 [Compound 48]
RESULT: 0

Next molecule, Plant response rating, Corn to be filled in.
QUERY: Read off the recorded Plant response rating, Corn for CCn1nc(C(C)(C)C)cc1C(=O)Nc1cccc(SC)c1 [Compound 131]
RESULT: 0
